Test Protocol: Selectivity index, ratio of minimum concentration required to cause microscopically detectable alteration in human HEL cells to EC50 for Herpes simplex virus-1 KOS
Assay type: toxicity, cell-based
Experimental Setup: read-out: Selectivity Index
Each entry below carries its recorded selectivity ratio.
Measured Property: selectivity ratio

given_smiles=O=c1c2ccccc2nc(-c2ccccc2)n1/N=C/c1ccccc1 assay_value=14
given_smiles=O=c1c2ccccc2nc(-c2ccccc2)n1/N=C/c1ccccc1O assay_value=100
given_smiles=COc1ccc(/C=N/n2c(-c3ccccc3)nc3ccccc3c2=O)cc1 assay_value=11

---

Test Protocol: Cytotoxicity against MDCK cells assessed as minimum concentration required to cause microscopically detectable alteration after 2 days
Assay type: cell-based, Canis lupus familiaris
Experimental Setup: dog, read-out: Activity
Measured Property: MCC at 48 h (µg/mL)

compound=O=c1c2ccccc2nc(-c2ccccc2)n1/N=C/c1ccc(Cl)cc1 measured_property="MCC at 48 h" comparison_sign== assay_value=20
compound=COc1ccccc1/C=N/n1c(-c2ccccc2)nc2ccccc2c1=O measured_property="MCC at 48 h" comparison_sign== assay_value=20
compound=C/C(=N\n1c(-c2ccccc2)nc2ccccc2c1=O)c1ccc(O)cc1 measured_property="MCC at 48 h" comparison_sign=> assay_value=100
compound="CC(N)C12CC3CC(CC(C3)C1)C2 (stereo not drawn)" measured_property="MCC at 48 h" comparison_sign== assay_value=1000
compound=NC12CC3CC(CC(C3)C1)C2 measured_property="MCC at 48 h" comparison_sign=> assay_value=1000
compound=NC(=O)c1ncn([C@@H]2O[C@H](CO)[C@@H](O)[C@H]2O)n1 measured_property="MCC at 48 h" comparison_sign=> assay_value=100
compound=O=c1c2ccccc2nc(-c2ccccc2)n1/N=C/c1ccccc1O measured_property="MCC at 48 h" comparison_sign=≥ assay_value=0.8
compound=O=c1c2ccccc2nc(-c2ccccc2)n1/N=C/c1ccc(O)cc1 measured_property="MCC at 48 h" comparison_sign== assay_value=20
